Documented pIC50 (REN) across a set of molecules
# target entity: RORγ (UniProt P51449)
# experiment description: RORγ Gal4 Reporter Gene Assay in 293T cells (firefly and renilla luciferase)
# Assay type: cell-based, human
# run parameters: third value of the cell; Gal4 reporter gene assay in 293T cells, renilla normalised luciferase
outcome measure: pIC50 (REN)

compound: Cc1c(C(=O)NC2CCOCC2)cc(-c2ccc(-c3cnc(NC(C)C)nc3)c(C(C)(C)C)c2)n1CC1CCCCC1
observed measurement: 6.8

compound: Cc1c(C(=O)N[C@H]2C[C@H](C(=O)O)C2)cc(-c2ccc(S(=O)(=O)NC(C)(C)C)c3c(F)cccc23)n1CC1CCCCC1
observed measurement: 7.0

compound: Cc1c(C(=O)NCC2(C(=O)NCCCO)CCOCC2)cc(-c2cc(C(C)(C)C)c3c(c2)C2(CCO3)CC2)n1CC1CCCCC1
observed measurement: 6.9

compound: Cc1c(C(=O)NCC(C)(C)NS(C)(=O)=O)cc(-c2ccc(S(=O)(=O)NC(C)(C)C)c(C(C)(C)C)c2)n1CC1CCCCC1
observed measurement: 6.8

----------
Documented pIC50 (FF) across a set of molecules
# target entity: RORγ (UniProt P51449)
# experiment description: RORγ Gal4 Reporter Gene Assay in 293T cells (firefly and renilla luciferase)
# Type: cell-based, human
# run parameters: second value of the cell; Gal4 reporter gene assay in 293T cells, firefly luciferase
outcome measure: pIC50 (FF)

molecule: Cc1c(C(=O)NCC(C)(C)O)cc(-c2cc(OC(F)(F)F)cc(C3(C)CC3)c2)n1CC1CCCCC1 [17/348]
observed measurement: 6.9
//
molecule: Cc1c(C(=O)NC2CCOCC2)cc(-c2ccc(S(=O)(=O)NC(C)(C)C)c(Br)c2)n1CC1CCCCC1 [17/157]
observed measurement: 7.0
//
molecule: Cc1c(C(=O)NC2CCS(=O)(=O)C2)cc(-c2cc(C(C)(C)C)c3c(c2)C2(CCO3)CC2)n1CC1CCCCC1 (centres unmarked) [17/15]
observed measurement: 7.2
//
molecule: Cc1c(C(=O)NC2CCOCC2)cc(-c2ccc(S(=O)(=O)N3CCCC3(C)C)c(C(F)(F)F)c2)n1CC1CCCCC1 [17/84]
observed measurement: 7.2
//
molecule: Cc1c(C(=O)N[C@H]2C[C@H](C(=O)O)C2)cc(-c2cc(C(=O)NC(C)(C)C)cc(C(C)(C)C)c2)n1CC1CCCCC1 [17/330]
observed measurement: 7.3
//
molecule: Cc1c(C(=O)N[C@H]2C[C@H](C(=O)O)C2)cc(-c2cc(C(C)(C)C)cc(C(=O)NC(C)(C)C)c2Cl)n1CC1CCCCC1 [17/368]
observed measurement: 6.4
//
molecule: Cc1c(C(=O)N[C@H]2C[C@H](C(=O)O)C2)cc(-c2ccc(S(=O)(=O)NC(C)(C)C)c(OC(F)(F)F)c2)n1CC1CCCCC1 [17/174]
observed measurement: 7.1
//
molecule: CC(C)(C)NS(=O)(=O)c1ccc(-c2cc(C(=O)N[C@H]3C[C@H](C(=O)O)C3)c(F)n2CC2CCCCC2)cc1C(F)(F)F [20/7]
observed measurement: 6.2
//
molecule: Cc1c(C(=O)NCC2CCS(=O)(=O)C2)cc(-c2cc(C(C)(C)C)c3c(c2)C2(CCO3)CC2)n1CC1CCCCC1 (centres unmarked) [17/12]
observed measurement: 7.2
//
molecule: Cc1c(C(=O)NC2CCOCC2)cc(-c2ccc(S(=O)(=O)N[C@@H](C)C(F)(F)F)c(C(F)(F)F)c2)n1CC1CCCCC1 [17/141]
observed measurement: 8.3
//
molecule: CC(C)(C)c1cc(-c2cc(C(=O)N[C@H]3C[C@H](C(=O)O)C3)c(F)n2CC2CCCCC2)cc(C2(C)CC2)c1 [20/3]
observed measurement: 7.3
//
molecule: CCC(C)(C)NC(=O)c1cc(-c2cc(C(=O)NC3COC3)c(C)n2CC2CCCCC2)cc(C(F)(F)F)c1 [15/3]
observed measurement: 7.0
//
molecule: CC(C)(C)NS(=O)(=O)c1ccc(-c2cc(C(=O)NCCC(C)(C)C(=O)O)c(F)n2CC2CCCCC2)c2ccccc12 [20/9]
observed measurement: 7.8
//
molecule: Cc1c(C(=O)NC2CCOCC2)cc(-c2ccc(S(=O)(=O)NC(C)(C)C)cc2)n1CC1CCCCC1 [17/237]
observed measurement: 6.5
